- System: Pseudomonas aeruginosa
- measurement_notes: Antibacterial activity against Pseudomonas aeruginosa 19-55 assessed as inhibition of bacterial growth incubated for 18 hrs by agar dilution method
- Type: functional
measured_parameter: MIC (µg/mL)
# value in µg/mL; strip the unit string

Return value of MIC for input C[C@@H](O)[C@H]1C(=O)N2C(C(=O)O)=C(SCCNC=N)C[C@H]12 [IMIPENEM ANHYDROUS] , no commentary.
32

Return value of MIC for input CC(C)(O/N=C(\C(=O)N[C@@H]1C(=O)N2C(C(=O)[O-])=C(C[n+]3ccccc3)CS[C@H]12)c1csc(N)n1)C(=O)O [CEFTAZIDIME] , no commentary.
128

Return value of MIC for input C[C@H]1[C@H](NC(=O)/C(=N\OC(C)(C)C(=O)O)c2csc(N)n2)C(=O)N1S(=O)(=O)O [AZTREONAM] , no commentary.
128

Return value of MIC for input NCCC[C@H](NC(=O)C[C@@H](N)Cc1ccccc1)C(=O)Nc1ccc2ccccc2c1 , no commentary.
512

Return value of MIC for input C[C@@H](O)[C@H]1C(=O)N2C(C(=O)O)=C(S[C@@H]3CN[C@H](C(=O)N(C)C)C3)[C@H](C)[C@H]12 [MEROPENEM] , no commentary.
128

Data origin, for the record: ChEMBL document CHEMBL5625252
